// provenance: PubChem BioAssay (NCI)

System: SN12C renal
Test: NCI tumour cell line growth inhibition, 48 h
PROPERTY LABEL: TGI

Guide cases for TGI, answers given:
CCCCCCCCCCCCCCCCc1c(C(=O)OC)nc(NN)[nH]c1=O; > 50 µM
N#C/C(=C\c1cc(O)ccc1O)C(N)=O; > 100 µM
O=C(CC(c1ccccc1)C1C(=O)NC(=S)NC1=O)c1ccc([N+](=O)[O-])cc1 (stereo not drawn); > 100 µM
COC1=C(OC)C(=O)C(Sc2ccc3ccccc3c2)=CC1=O; 26.5 µM
Cc1cc(S(=O)(=O)Nc2n[nH]c(Nc3ccc4ccccc4c3)n2)c(S)cc1Cl; > 100 µM
CCOc1ccc(/C=C(\Cl)c2ccc(OC)cc2)cc1; > 100 µM

Task: Provide one value: measured TGI of NS(=O)(=O)c1nnc(NC(=O)c2cccc([N+](=O)[O-])c2)s1
Result: > 100 µM

Task: Provide one value: measured TGI of O=C(Nc1cccc(-n2cc(-c3ccncc3)c(-c3ccc(O)c(Cl)c3)n2)c1)c1cc(C(F)(F)F)cc(C(F)(F)F)c1
Result: > 50 µM

Task: Provide one value: measured TGI of CC(C)CC1c2[nH]c3ccccc3c2C[C@H]2C(=O)NC(CCCCNC(=O)OC(C)(C)C)C(=O)N12 (stereo partly drawn)
Result: 77.4 µM

Task: Provide one value: measured TGI of COc1ccc(Cn2cc3c(c2)-c2oncc2CC3)cc1OC
Result: > 50 µM

----------
# TGI values compiled below
Test system: HCT-116 colon
Test: NCI tumour cell line growth inhibition, 48 h

Task: Provide one value: measured TGI of CCCCCCSCC/C(C)=N\OC
Result: > 100 µM

Task: Provide one value: measured TGI of Cc1ccc(-c2nc3cc(Cl)c(Cl)cc3nc2C#N)cc1
Result: > 100 µM

Task: Provide one value: measured TGI of O=C(CC(c1ccccc1)C1C(=O)NC(=S)NC1=O)c1ccc([N+](=O)[O-])cc1 (configuration not stated)
Result: > 100 µM

Task: Provide one value: measured TGI of COc1ccc(Cn2cc3c(c2)-c2oncc2CC3)cc1OC
Result: 8.57 µM

Task: Provide one value: measured TGI of c1ccc(-c2n(Cc3ccc4ccccc4c3)cc[n+]2Cc2ccc3ccccc3c2)cc1
Result: 2.14 µM

----------
# TGI values compiled below
System: OVCAR-5 ovarian
Experiment: NCI tumour cell line growth inhibition, 48 h

CN(C)C(=O)NC(=S)N(C)C; > 100 µM

Task: Provide one value: measured TGI of NC1=NC(=O)/C(=C/c2ccc3ncccc3c2)S1
Result: > 25 µM

Task: Provide one value: measured TGI of O=C(/C=C/C(Cl)(Cl)Cl)Nc1ccc(Cl)cc1
Result: 27.5 µM

----------
Tested on: SK-OV-3 ovarian
Assay: NCI tumour cell line growth inhibition, 48 h
# TGI values compiled below

Guide cases for TGI, answers given:
O=C1c2ccccc2C(=O)c2c1ccc1c(=O)n(-c3ccccc3C(F)(F)F)nnc21; > 100 µM
Cc1c(-c2ccc(O)cc2)oc(=O)c2ccc(O)cc12; > 100 µM

// next item, TGI requested
Task: Provide one value: measured TGI of CC1C(=O)c2cc3c(cc2CCN(C)Cc2c1ccc1c2OCO1)OCO3 (stereo not drawn)
Result: > 75 µg/mL

----------
Tested on: T-47D breast
Assay: NCI tumour cell line growth inhibition, 48 h
# TGI values compiled below

Oc1cnc2c(O)cccc2c1; 91.6 µM
COc1cccc(C=C2N=C(c3ccccc3)N(n3c(-c4ccccc4)nc4ccccc4c3=O)C2=O)c1; > 100 µM
COc1ccc(C(=O)O[C@H]2[C@H](O[C@H]3[C@@H](O)COC(O[C@H]4C[C@H]5[C@@H]6CC=C7C[C@@H](O)CC[C@]7(C)[C@H]6CC[C@]5(C)[C@H]4[C@H](C)C(=O)CCC(C)C)[C@@H]3OC(C)=O)OC[C@@H](O)[C@@H]2O)c(C)c1 (stereo partly specified); 19.1 µM
COC(=O)c1nn2ccc3ccccc3c2c1C(=O)OC; > 100 µM
CC(C)CC1c2[nH]c3ccccc3c2C[C@H]2C(=O)NC(CCCCNC(=O)OC(C)(C)C)C(=O)N12 (stereo partly specified); 16.1 µM

// next item, TGI requested
Task: State, for T-47D breast, measured TGI of the molecule listed here: O=C1/C(=C/c2[nH]ncc2-c2ccc(Cl)cc2)C(=O)N(c2ccccc2)C1c1ccccc1 (stereo unspecified)
Result: 17.3 µM

----------
Tested on: UO-31 renal
Assay: NCI tumour cell line growth inhibition, 48 h
# TGI values compiled below

Guide cases for TGI, answers given:
C/C(=N/NC(=O)C[n+]1ccccc1)C(CN(CC(C)C)CC(C)C)C(=O)Nc1ccc(C)cc1C (stereo not given); 82.8 µM
c1ccc(-c2n(Cc3ccc4ccccc4c3)cc[n+]2Cc2ccc3ccccc3c2)cc1; 2.87 µM
Oc1cnc2c(O)cccc2c1; > 100 µM
CC(=O)C1(C)CC(C#N)(C#N)C(C#N)=C1N (stereo not given); > 100 µM
CN1N=C(c2ccccc2)C(C(c2ccccc2[N+](=O)[O-])C2C(=O)N(C)N=C2c2ccccc2)C1=O (stereo not given); > 100 µM

Task: Provide one value: measured TGI of CC1CCC(=O)C(C(O)CC2CC(=O)N(c3ccccc3)C(=O)C2)C1 (stereo not given)
Result: > 100 µM

Task: Provide one value: measured TGI of COC(=O)c1nn2ccc3ccccc3c2c1C(=O)OC
Result: > 100 µM

Task: Provide one value: measured TGI of COc1ccc(Cn2cc3c(c2)-c2oncc2CC3)cc1OC
Result: 23.8 µM

Task: Provide one value: measured TGI of Cc1cc(C)c2c(c1)CC1(Cc3ccc(C)c(C)c3C1=O)C2=O (stereo not given)
Result: > 100 µM

Task: Provide one value: measured TGI of Clc1ccc(OCc2nnc3n2N=C(c2ccc(Br)cc2)CS3)cc1
Result: 19.6 µM

Task: Provide one value: measured TGI of CC(=O)OCC1OC(n2c(N)c(C#N)c(C)c(C#N)c2=S)C(OC(C)=O)C(OC(C)=O)C1OC(C)=O (stereo not given)
Result: > 100 µM

Task: Provide one value: measured TGI of Cc1ccc(Cl)cc1NC(=O)c1cc2ccccc2cc1O
Result: 1.47 µM

Task: Provide one value: measured TGI of C[N+]12CCN(c3ccccc31)c1ccccc12
Result: > 10 µM

Task: Provide one value: measured TGI of [N-]=[N+]=Nc1ccc2c(c1)Sc1ccccc1N2CCCCN1CCN(Cc2ccc(C(=O)c3ccc(CSCC(N)C(=O)O)cc3)cc2)CC1 (stereo not given)
Result: > 100 µM

Task: Provide one value: measured TGI of COc1cc(-c2ccc(NC(=O)SCCC(=O)O)cc2OC)ccc1NC(=O)SCCC(=O)O
Result: > 100 µM

----------
Tested on: EKVX NSCLC
Assay: NCI tumour cell line growth inhibition, 48 h
# TGI values compiled below

Guide cases for TGI, answers given:
CCCCNC(=NCc1ccccc1)NC#N; > 100 µM
CCCCCCCCCC(CCCC(O)CC(=O)O)OC1OC(COC2OC(C)C(OC(C)=O)C(O)C2O)C(O)C(O)C1OC1OC(CO)C(O)C(O)C1OC1OC(C)C(OC(=O)CC(C)C)C(O)C1O (stereo not drawn); > 35 µM
COc1cccc(/C=C/c2ccnc3ccccc23)c1OC; > 10 µM

Task: Provide one value: measured TGI of Cc1nc(-c2cnc(NC(C)C)n(C)c2=O)ccc1Oc1ccnc(-c2cnn(C)c2)c1
Result: 99.7 µM

Task: Provide one value: measured TGI of Cc1ccc(-c2nc3cc(Cl)c(Cl)cc3nc2C#N)cc1
Result: > 100 µM

Task: Provide one value: measured TGI of CCc1[nH]c(=O)c2oc3cc4ccccc4cc3c2c1C(=O)O
Result: > 10 µM

Task: Provide one value: measured TGI of COC1[C@H](NC(=O)OC(C)(C)C)C(=O)N1Cc1ccccc1 (stereo partly drawn)
Result: > 100 µM

Task: Provide one value: measured TGI of OCCCSCCO
Result: > 100 µM

----------
# TGI values compiled below
System: MOLT-4 leukemia
Assay: NCI tumour cell line growth inhibition, 48 h
Give the value in µM but do not write µM after it.

O=c1cc(NNc2ccccc2F)[nH]c(=O)[nH]1; 54
Cc1cc2ccc(OC(=O)c3ccc(N=C(N)N)cc3)cc2oc1=O; 54.4

// next item, TGI requested
Task: Provide one value: measured TGI of C=C1C(=O)O[C@H]2C/C(C)=C/CC[C@]3(C)CCC[C@](C)(CC[C@@H]12)O3
Result: 15.7

----------
# GI50 values compiled below
Test system: SF-539 CNS
Assay: NCI tumour cell line growth inhibition, 48 h

Guide cases for GI50, answers given:
Cc1ccc(Cl)cc1NC(=O)c1cc2ccccc2cc1O; 356 nM
O=C(Cc1csc2nc(-c3ccc(Cl)cc3)cn12)N/N=C/c1ccccc1O; 7930 nM

Task: Provide one value: measured GI50 of CN1CCN(c2ccc(NC(=O)c3cncnc3Nc3ccc(OCc4cccc(F)c4)c(Cl)c3)cc2)CC1
Result: 847 nM

Task: Provide one value: measured GI50 of COc1ccc2nc(-c3ccccc3)cc(Nc3cccc(C(C)=O)c3)c2c1
Result: 1670 nM

Task: Provide one value: measured GI50 of CC1C(=O)c2cc3c(cc2CCN(C)Cc2c1ccc1c2OCO1)OCO3 (stereo not given)
Result: 71.2 µg/mL
